Entry source: ChEMBL document CHEMBL1134017

molecular target: Interstitial collagenase (Homo sapiens)
Sequence (P03956 whole entry): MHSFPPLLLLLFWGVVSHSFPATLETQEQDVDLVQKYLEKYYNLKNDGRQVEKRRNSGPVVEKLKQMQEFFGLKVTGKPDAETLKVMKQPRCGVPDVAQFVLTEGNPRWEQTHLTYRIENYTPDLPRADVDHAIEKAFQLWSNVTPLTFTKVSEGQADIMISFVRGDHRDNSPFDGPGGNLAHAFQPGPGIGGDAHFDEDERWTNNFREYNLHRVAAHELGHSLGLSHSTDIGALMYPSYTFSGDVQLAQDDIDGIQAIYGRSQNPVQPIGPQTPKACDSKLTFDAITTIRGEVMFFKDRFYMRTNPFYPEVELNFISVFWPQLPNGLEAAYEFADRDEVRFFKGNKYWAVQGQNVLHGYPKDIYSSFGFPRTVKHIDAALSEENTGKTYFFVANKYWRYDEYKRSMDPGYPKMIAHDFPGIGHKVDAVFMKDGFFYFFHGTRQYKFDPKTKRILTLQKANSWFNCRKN
Field 'label' (enum: t / f). Set to t when IC50 is strictly under 30 nM; else f.

COc1ccc(S(=O)(=O)N2CN(C)C(=O)C[C@@H]2C(=O)NO)cc1 f
COc1ccc(S(=O)(=O)N2CC[C@H](C(=O)NO)N(S(=O)(=O)c3ccc(OC)cc3)CC2)cc1 t
COc1ccc(S(=O)(=O)N2CCN(C(C)C)C(=O)C[C@@H]2C(=O)NO)cc1 t
COc1ccc(S(=O)(=O)N2CN(Cc3ccccc3)C(=O)C[C@@H]2C(=O)NO)cc1 t
COc1ccc(S(=O)(=O)N2CCN(C(=O)OCc3ccccc3)CC[C@@H]2C(=O)NO)cc1 f
COCCN1CN(S(=O)(=O)c2ccc(OC)cc2)[C@@H](C(=O)NO)CC1=O f
COc1ccc(S(=O)(=O)N2CN(C(C)(C)C)C(=O)C[C@@H]2C(=O)NO)cc1 f

Now look at this one.
**Q:** Is IC50 strictly under 30 nM for the entry `COc1ccc(S(=O)(=O)N2C[C@@H]3CCCN3C(=O)C[C@@H]2C(=O)NO)cc1` ?
**A:** t
